- Tested on: MOLM14
- procedure.text: cell viability relative to vehicle control; higher = less cytotoxic;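 further: after 48 h exposure read by CellTiter-Glo luminescence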
- reported.conditions: 10 µM; SRSF2 genotype: SRSF2 wt/wt
Where a name gives a salt, the structure may show the parent alone.
endpoint.label: cell viability (%)

* O=C(O)Cc1cccc2ccccc12 [1-Naphthaleneacetic acid] | 97.5
* NC[C@@](O)(c1ccc(Cl)cc1)c1ccc(-c2cn[nH]c2)cc1 | 25.6
* CC1(C)[C@@H](O[C@H]2O[C@H](C(=O)O)[C@@H](O)[C@H](O)[C@H]2O[C@@H]2O[C@H](C(=O)O)[C@@H](O)[C@H](O)[C@H]2O)CC[C@]2(C)[C@H]3C(=O)C=C4[C@@H]5C[C@@](C)(C(=O)O)CC[C@]5(C)CC[C@@]4(C)[C@]3(C)CC[C@@H]12 [Ammonium Glycyrrhizinate (AMGZ)] | 106
* CC(C(=O)O)C(=O)O [Methylmalonate] | 103
* C[C@H]1O[C@@H](n2cc(F)c(=O)[nH]c2=O)[C@H](O)[C@@H]1O [Doxifluridine] | 105
* CC(C)n1c([C@H](C)Nc2ncnc(N)c2C#N)cc2cccc(-c3ccc(=O)n(C)c3)c2c1=O | 22.6
* NC(=O)N/N=C/c1ccc([N+](=O)[O-])o1 [Nitrofurazone (Nitrofural)] | 99.5
* CN(C)CCC(c1ccc(Br)cc1)c1ccccn1 (stereo not given) [Brompheniramine hydrogen maleate] | 98.8
* C=CCC(=NOS(=O)(=O)O)S[C@@H]1O[C@H](CO)[C@@H](O)[C@H](O)[C@H]1O (stereo in doubt) [Sinigrin] | 97.8
* CCC(=O)O[C@]1(C(=O)SCF)[C@H](C)C[C@H]2[C@@H]3C[C@H](F)C4=CC(=O)C=C[C@]4(C)[C@@]3(F)[C@@H](O)C[C@@]21C [Fluticasone propionate (Flonase, Veramyst)] | 83.2
* Oc1ccc(Nc2nc(-c3ccc(Cl)cc3)cs2)cc1 | 39.6
* COCC1=C(C(=O)OC(C)OC(=O)OC(C)C)N2C(=O)[C@@H](NC(=O)/C(=N\OC)c3csc(N)n3)[C@H]2SC1 (stereo not given in full) [Cefpodoxime proxetil] | 95.7
* CC(ONC(=O)c1cc(C(F)(F)F)cc(C(F)(F)F)c1)C(=O)Nc1ccc(Cl)cc1 (stereo not given) | 93.2
* O=C(Nc1cc2cc[nH]c2cn1)c1ccccc1 | 51.1
* CCCCCCCCc1ccc(CCC(N)(CO)CO)cc1 [Fingolimod (FTY720) HCl] | 0.39

---

Item-by-item account of cell viability
- Tested on: K562
- procedure.text: cell viability relative to vehicle control; higher = less cytotoxic
- reported.conditions: 10 µM; SRSF2 genotype: SRSF2 wt/wt
Counter-ions that a name gives are not always drawn.
endpoint.label: cell viability (%)

* CCC[C@@H]1C[C@@H](C(=O)N[C@@H]([C@H]2O[C@H](SC)[C@H](O)[C@@H](O)[C@H]2O)[C@H](C)Cl)N(C)C1 [Clindamycin HCl] | 102
* COc1ccc(-c2coc3cc(O)ccc3c2=O)cc1 [Formononetin (Formononetol)] | 86.4
* CCC[S+]([O-])c1ccc2[nH]c(NC(=O)OC)nc2c1 (stereo not drawn) [Albendazole Oxide (Ricobendazole)] | 80.6
* CN1Cc2c(ccc3c2OCO3)[C@@]2(C)[C@@H](O)Cc3cc4c(cc3[C@@H]12)OCO4 [Corynoline] | 24.2
* COc1ccc2cc(-c3nc(-c4ccc([S+](C)[O-])cc4)[nH]c3-c3ccncc3)ccc2c1 (stereo not drawn) [Tie2 kinase inhibitor] | 93.8
* Cc1cc(N2CCCCC2)nc2ccccc12 | 98.3
* CCN(CC)C(=O)C1(c2ccccc2)CC1CN (stereo not drawn) [Milnacipran HCl] | 96.8
* CCCC1CC(C(=O)NC(C(C)Cl)C2OC(SC)C(O)C(O)C2O)N(C)C1 (stereo not drawn) [Clindamycin alcoholate] | 102
